Structures can show the parent of a compound that is named as a salt.
Readout type: melting point

[[record]]
compound = "COc1cc2c(cc1OC)-c1nc(-c3ccncc3)cc(=O)n1CC2"
readout_value = "271 to 273 °C"

[[record]]
compound = "O=c1cc(-c2ccncc2)nc2c3cccc([N+](=O)[O-])c3ccn12 (as salt: hydrochloride)"
readout_value = "270 to 272 °C"

[[record]]
compound = "COc1ccc2ccn3c(=O)cc(-c4ccncn4)nc3c2c1"
readout_value = "302 to 304 °C"

[[record]]
compound = "O=c1cc(-c2ccncc2)nc2c3cc(O)ccc3ccn12 (as salt: oxalate)"
readout_value = "368 to 370 °C"

[[record]]
compound = "Nc1cccc2c1ccn1c(=O)cc(-c3ccncc3)nc21"
readout_value = "329 to 331 °C"

